SYSTEM_NAME: BACE (Homo sapiens (Human), UniProt P56817)
Sequence (P56817 46-501, species assumed): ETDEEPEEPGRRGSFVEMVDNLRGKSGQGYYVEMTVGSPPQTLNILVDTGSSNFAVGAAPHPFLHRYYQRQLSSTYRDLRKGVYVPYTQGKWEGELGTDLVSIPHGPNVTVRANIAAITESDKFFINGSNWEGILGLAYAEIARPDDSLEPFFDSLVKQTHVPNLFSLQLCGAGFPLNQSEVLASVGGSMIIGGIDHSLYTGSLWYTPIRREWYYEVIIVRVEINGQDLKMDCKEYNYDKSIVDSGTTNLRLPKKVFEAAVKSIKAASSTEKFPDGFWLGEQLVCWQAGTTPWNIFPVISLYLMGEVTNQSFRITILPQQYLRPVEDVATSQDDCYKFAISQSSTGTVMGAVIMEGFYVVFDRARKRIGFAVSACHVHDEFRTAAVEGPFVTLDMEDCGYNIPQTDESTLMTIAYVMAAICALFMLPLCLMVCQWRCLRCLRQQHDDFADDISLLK
PROTOCOL: In vitro BACE cell-based assay (Aβ40 in conditioned medium, sandwich ELISA)
Rule: IC50 below 0.04 µM gives True, anything at or above gives False.

COMPOUND | CLASS
Cc1cc(C(F)(F)F)cnc1C(=O)Nc1cc(F)c(F)c([C@@]2(CF)N=C(N)O[C@@H]3C[C@@H]32)c1 [Example 51] | True
COc1cc(C#N)cnc1C(=O)Nc1ccc(F)c([C@@]2(C(F)F)N=C(N)O[C@@H]3C[C@@H]32)c1 [Example 45] | True
COc1cc(F)cnc1C(=O)Nc1ccc(F)c([C@@]2(C(F)F)N=C(N)O[C@@H]3C[C@@H]32)c1 [Example 307] | False
Cc1cc(OC(F)F)cnc1C(=O)Nc1cc(Cl)c(F)c([C@@]2(CF)N=C(N)O[C@@H]3C[C@@H]32)c1 [Example 87] | True
N#Cc1cnc(C(=O)Nc2ccc(F)c([C@@]3(C(F)F)N=C(N)O[C@@H]4C[C@@H]43)c2)c(CO)c1 [Example 396] | False
Cc1c(C(=O)Nc2ccc(F)c([C@]3(C(F)F)N=C(N)O[C@H]4C[C@H]43)c2)nc2ccc(Cl)cn12 (racemic) [Example 61] | False
C[C@]1(c2cc(NC(=O)c3ccc(Cl)cn3)cnc2F)N=C(N)O[C@@H]2C[C@@H]21 [Example 334] | True

---

SYSTEM_NAME: Cathepsin D (Cat D) (Homo sapiens (Human))
PROTOCOL: In vitro enzymatic Cathepsin D (Cat D) FRET assay
Type: biochemical
TEST_CONTEXT: read-out: CatD IC50

COMPOUND | DISPLAY_UNIT | IC50
COc1cnc(C(=O)Nc2cc(F)c(F)c([C@]3(CF)N=C(N)O[C@H]4C[C@H]43)c2)cn1 [Example 144] | µM | 1340
NC1=N[C@@](c2cc(NCC3CC3)ccc2F)(C(F)F)[C@H]2C[C@H]2O1 [Example 379] | µM | 188
COc1cnc(C(=O)Nc2ccc(F)c([C@]3(C(F)F)N=C(N)O[C@H]4C[C@H]43)c2)c(C)n1 [Example 64] | µM | 191
NC1=N[C@](CF)(c2cc(NC(=O)c3ccc(F)cn3)ccc2Cl)[C@H]2C[C@H]2O1 [Example 445] | µM | 1270

---

SYSTEM_NAME: Beta Secretase enzyme (BACE) (Homo sapiens (Human), UniProt P56817)
Sequence (P56817 46-501): as the sequence (P56817 46-501, species assumed) above
PROTOCOL: In vitro enzymatic BACE FRET assay
Type: biochemical
TEST_CONTEXT: read-out: BACE1 Enzyme assay IC50
Rule: IC50 below 100 nM gives MET, anything at or above gives NOT MET.

MOLECULE | CLASS
CC#CCOc1cnc(C(=O)Nc2ccc(Cl)c([C@]3(C(F)F)N=C(N)O[C@H]4C[C@H]43)c2)cn1 (racemic) [Example 210] | MET
COc1cnc(C(=O)Nc2cc(C)c(F)c([C@@]3(C(F)F)N=C(N)O[C@@H]4C[C@@H]43)c2)c(C)n1 | NOT MET
COC[C@@]1(c2cc(NC(=O)c3cnc(OC)cn3)ccc2F)N=C(N)O[C@H]2C[C@H]21 | NOT MET
COc1cnc(C(=O)Nc2ccc(F)c([C@@]3(C(F)F)N=C(N)O[C@@H]4C[C@@H]43)c2)c(F)c1 | MET
NC1=N[C@](c2cccc(NC(=O)c3ccc(Cl)cn3)c2)(C(F)F)[C@@H]2C[C@@H]2O1 | NOT MET
COc1cc(F)cnc1C(=O)Nc1ccc(F)c([C@@]2(C(F)F)N=C(N)O[C@@H]3C[C@@H]32)c1 | NOT MET
CC(C)c1cccnc1C(=O)Nc1ccc(F)c([C@@]2(C(F)F)N=C(N)O[C@@H]3C[C@@H]32)c1 | NOT MET
Cc1cc(C#N)cnc1C(=O)Nc1ccc(F)c([C@@]2(C(F)F)N=C(N)O[C@@H]3C[C@@H]32)c1 | MET
N#Cc1ccc(C(=O)Nc2cc(F)c(Cl)c([C@]3(CF)N=C(N)O[C@H]4C[C@H]43)c2)nc1 (racemic) | NOT MET
CCOc1cnc(C(=O)Nc2ccc(F)c([C@@]3(C(F)F)N=C(N)O[C@@H]4C[C@@H]43)c2)cn1 | NOT MET
C#CCOc1cnc(C(=O)Nc2ccc(Cl)c([C@]3(C(F)F)N=C(N)O[C@H]4C[C@H]43)c2)cn1 [Example 222] | NOT MET
C#CCOc1cnc(C(=O)Nc2ccc(Cl)c([C@]3(C(F)F)N=C(N)O[C@H]4C[C@H]43)c2)cn1 (racemic) [Example 219] | MET
NC1=N[C@](c2cc(NC(=O)c3ccc(Br)cn3)ccc2F)(C(F)F)[C@@H]2C[C@@H]2O1 | NOT MET
COc1cnc2c(Nc3ccc(F)c([C@@]4(C)N=C(N)O[C@H]5C[C@H]54)c3)nccc2c1 | NOT MET

---

Catalogue of pIC50 readings, one per entry.
SYSTEM_NAME: Cathepsin D (Cat D) (Homo sapiens (Human), UniProt P07339)
Sequence (P07339 65-412, species assumed): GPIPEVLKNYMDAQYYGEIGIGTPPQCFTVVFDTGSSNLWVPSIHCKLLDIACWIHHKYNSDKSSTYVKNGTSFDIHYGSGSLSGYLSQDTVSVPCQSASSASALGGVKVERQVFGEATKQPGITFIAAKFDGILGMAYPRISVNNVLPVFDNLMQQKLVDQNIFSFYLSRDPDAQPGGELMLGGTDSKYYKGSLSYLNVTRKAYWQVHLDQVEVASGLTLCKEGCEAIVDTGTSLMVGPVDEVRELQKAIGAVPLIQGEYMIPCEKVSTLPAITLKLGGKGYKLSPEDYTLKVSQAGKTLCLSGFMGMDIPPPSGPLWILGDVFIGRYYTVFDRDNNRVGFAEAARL
PROTOCOL: In vitro enzymatic Cathepsin D (Cat D) FRET assay
Type: biochemical
TEST_CONTEXT: read-out: CatD IC50
pIC50: −log10 of the molar value.
EXPERIMENTAL_ENDPOINT: pIC50

COMPOUND | EXPERIMENTAL_VALUE
CC#Cc1cncc(-c2cc([C@]3(CF)N=C(N)O[C@H]4C[C@H]43)c(F)cc2CO)c1 [Example 432] | 3.75
Cc1cc(OC(F)F)cnc1C(=O)Nc1ccc(Cl)c([C@@]2(CF)N=C(N)O[C@@H]3C[C@@H]32)c1 [Example 126] | 2.92
Cc1cc(NC(=O)c2ncc(Cl)cc2Cl)cc([C@@]2(C(F)F)N=C(N)O[C@@H]3C[C@@H]32)c1F [Example 135] | 3.31
Cc1cc(NC(=O)c2ncc(Cl)cc2F)cc([C@@]2(C(F)F)N=C(N)O[C@@H]3C[C@@H]32)c1F [Example 302] | 3.09
Cc1ncc(Cl)nc1C(=O)Nc1ccc(F)c([C@@]2(C(F)F)N=C(N)O[C@@H]3C[C@@H]32)c1 (stereo in doubt) [Example 54] | 3.34
CC1(C#Cc2ccc(C(=O)Nc3ccc(F)c([C@@]4(C(F)F)N=C(N)O[C@@H]5C[C@@H]54)c3)nc2)COC1 [Example 409] | 3.13
COc1cnc(C(=O)Nc2ccc(C)c([C@@]3(C(F)F)N=C(N)O[C@@H]4C[C@@H]43)c2)cn1 [Example 294] | 3.16

---

SYSTEM_NAME: BACE (Homo sapiens (Human), UniProt P56817)
PROTOCOL: In vitro BACE cell-based assay (Aβ40 in conditioned medium, sandwich ELISA)
param class (str): category from IC50; see ranges LOW = under 0.04 µM, MEDIUM = from 0.04 µM up to 0.1 µM, HIGH = 0.1 µM and over

MOLECULE | SYSTEM_NAME | CLASS
NC1=N[C@@](c2cc(NC(=O)c3cnc(OCC4CCCC4)cn3)ccc2F)(C(F)F)[C@H]2C[C@H]2O1 | BACE (Homo sapiens (Human), UniProt P56817) | HIGH
NC1=N[C@](c2cc(NC(=O)c3ccc(Cl)cn3)ccc2F)(C(F)F)[C@@H]2C[C@@H]2O1 (racemic) [Example 55] | BACE (Homo sapiens (Human), UniProt P56817) | MEDIUM
NC1=N[C@@](c2cc(NC(=O)c3cnc(OCC4CC4)cn3)ccc2F)(C(F)F)[C@H]2C[C@H]2O1 | BACE (Homo sapiens (Human), UniProt P56817) | MEDIUM
COCc1cc(C#N)cnc1C(=O)Nc1ccc(F)c([C@@]2(C(F)F)N=C(N)O[C@@H]3C[C@@H]32)c1 | BACE (Homo sapiens (Human), UniProt P56817) | LOW
NC1=N[C@@](c2cc(NC(=O)c3c(F)cc(F)cc3F)ccc2F)(C(F)F)[C@H]2C[C@H]2O1 | BACE (Homo sapiens (Human), UniProt P56817) | HIGH
NC1=N[C@@](c2cc(NS(=O)(=O)c3ccc(Cl)cn3)ccc2F)(C(F)F)[C@H]2C[C@H]2O1 | BACE (Homo sapiens (Human), UniProt P56817) | HIGH
Cc1cc(OC(F)F)cnc1C(=O)Nc1ccc(Cl)c(C2(C(F)F)N=C(N)O[C@@H]3C[C@@H]32)c1 (some centres unmarked) | BACE (Homo sapiens (Human), UniProt P56817) | MEDIUM
NC1=N[C@](CF)(c2cc(NC(=O)c3nn(C(F)F)cc3Cl)cc(F)c2F)[C@H]2C[C@H]2O1 | BACE (Homo sapiens (Human), UniProt P56817) | LOW
NC1=N[C@@](c2cc(NC(=O)C3(c4ccc(Cl)cc4)CCC3)ccc2F)(C(F)F)[C@H]2C[C@H]2O1 | BACE (Homo sapiens (Human), UniProt P56817) | HIGH
NC1=N[C@@](c2cc(NC(=O)c3ccccn3)ccc2F)(C(F)F)[C@H]2C[C@H]2O1 | BACE (Homo sapiens (Human), UniProt P56817) | HIGH
Cc1cc(C(F)F)cnc1C(=O)Nc1cnc(F)c([C@@]2(CF)N=C(N)O[C@@H]3C[C@@H]32)c1 | BACE (Homo sapiens (Human), UniProt P56817) | MEDIUM
COc1cc(C#N)cnc1C(=O)Nc1cc(C)c(F)c([C@@]2(C(F)F)N=C(N)O[C@@H]3C[C@@H]32)c1 | BACE (Homo sapiens (Human), UniProt P56817) | LOW
NC1=N[C@@](c2cc(Nc3ncc(F)c4cc(C#CC5CC5)cnc34)ccc2F)(C(F)F)[C@H]2C[C@H]2O1 | BACE (Homo sapiens (Human), UniProt P56817) | HIGH
Cc1c(C(=O)Nc2ccc(F)c([C@@]3(C(F)F)N=C(N)O[C@@H]4C[C@@H]43)c2)nc2ccc(Cl)cn12 | BACE (Homo sapiens (Human), UniProt P56817) | LOW
COc1cnc(C(=O)Nc2cccc([C@@]3(C(F)F)N=C(N)O[C@@H]4C[C@@H]43)c2)cn1 | BACE (Homo sapiens (Human), UniProt P56817) | HIGH
COc1cnc(C(=O)Nc2ccc(F)c([C@@]3(C)N=C(N)O[C@@H]4C[C@@H]43)n2)cn1 | BACE (Homo sapiens (Human), UniProt P56817) | HIGH
N#Cc1cnc2c(Nc3ccc(F)c([C@@]4(C(F)F)N=C(N)O[C@@H]5C[C@@H]54)c3)ncc(F)c2c1 | BACE (Homo sapiens (Human), UniProt P56817) | MEDIUM
COc1cnc(C(=O)Nc2ccc(Cl)c([C@@]3(C(F)F)N=C(N)O[C@@H]4C[C@@H]43)c2)c(C)c1 | BACE (Homo sapiens (Human), UniProt P56817) | MEDIUM
COc1cc(Cl)cnc1C(=O)Nc1cc(C)c(F)c([C@@]2(C(F)F)N=C(N)O[C@@H]3C[C@@H]32)c1 | BACE (Homo sapiens (Human), UniProt P56817) | MEDIUM
NC1=N[C@@](c2cc(NC(=O)C3=CCCCC3)ccc2F)(C(F)F)[C@H]2C[C@H]2O1 | BACE (Homo sapiens (Human), UniProt P56817) | HIGH
COC[C@@]1(c2cc(NC(=O)c3cnc(OC)cn3)ccc2F)N=C(N)O[C@H]2C[C@H]21 | BACE (Homo sapiens (Human), UniProt P56817) | HIGH
NC1=N[C@@](c2cc(NC(=O)C#Cc3ccccc3)ccc2F)(C(F)F)[C@H]2C[C@H]2O1 | BACE (Homo sapiens (Human), UniProt P56817) | HIGH
NC1=N[C@@](c2cc(NC(=O)c3ncc(Cl)cc3CF)ccc2F)(C(F)F)[C@H]2C[C@H]2O1 | BACE (Homo sapiens (Human), UniProt P56817) | LOW
NC1=N[C@@](c2cc(NC(=O)c3cnc(OCC4CCOCC4)cn3)ccc2F)(C(F)F)[C@H]2C[C@H]2O1 | BACE (Homo sapiens (Human), UniProt P56817) | HIGH
NC1=N[C@@](c2cc(NC(=O)c3ncc(Cl)cc3Cl)ccc2Cl)(C(F)F)[C@H]2C[C@H]2O1 | BACE (Homo sapiens (Human), UniProt P56817) | LOW
NC1=N[C@@](c2cc(NC(=O)C3CC(=O)C3)ccc2F)(C(F)F)[C@H]2C[C@H]2O1 | BACE (Homo sapiens (Human), UniProt P56817) | HIGH
COC[C@@]1(c2cc(NC(=O)c3ccc(Cl)cn3)ccc2F)N=C(N)O[C@H]2C[C@H]21 | BACE (Homo sapiens (Human), UniProt P56817) | HIGH
COc1cnc(C(=O)Nc2ccc(Cl)c([C@@]3(CF)N=C(N)O[C@@H]4C[C@@H]43)c2)c(Cl)c1 | BACE (Homo sapiens (Human), UniProt P56817) | LOW

Hey, just so you know, these numbers are from patent US9085576B2.
